B1: LINE1-mini (parent)
chain: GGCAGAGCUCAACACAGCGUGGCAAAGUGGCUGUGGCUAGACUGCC

- Variants of: B1
- method.description: self-cleavage, relative activity (ratio to wild type); higher = more cleavage; in vitro, sequencing; the parent is a self-cleaving ribozyme
Please mark satisfied if the recorded self-cleavage is equal to or greater than 0.1, and not satisfied if it falls below.

C8G G19C	not satisfied
G17U G33U	not satisfied
A12G C31A	satisfied
G21C C23G	satisfied
C15G G44A	not satisfied
C3G U34A	not satisfied

# bool: self-cleavage of A11U C42G >= 0.1
not satisfied

Then this variant: A14G C45G
satisfied

The reported measurements were obtained from the RNAGym collection of RNA variant scans (doi:10.7554/elife.90254).
